Each recorded value in this set is attributed to PubChem BioAssay.

experiment: compound binding in COS7 lysate, probe aLAP1, primary screen, cell lysate, small-molecule microarray (AID 1124); conditions: probe aLAP1, fluorescence, higher = more signal;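 note: lysate comes from COS7 cells expressing LAP1 and is applied at 0.3 µg/mL; score merges spot fluorescence near 667 nm with signal-to-noise over triplicate slides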
Criterion: composite z-score meeting or surpassing 0.02. Met: t. Not met: f.

Take a look at these entries with their results.
Does the reported composite z-score for CCCCC#C[C@@H]1C=C[C@H](Oc2cc(OC)c(OC)c(OC)c2)[C@@H](COC(=O)OCC)O1 fall at or above the 0.02 mark? t

// inclusive: composite z-score at least 0.02? input: COC(=O)CC=C[C@@H](C)[C@@H](C=NO[C@@H](C)c1cc(-c2c(C)cc(C)cc2C)no1)NS(=O)(=O)c1ccc(C)cc1 f

Has CON=C(C)CCC(=O)OC[C@H]1O[C@H](c2ccccc2)C=C[C@@H]1Oc1ccc(OC)cc1 a recorded composite z-score greater than or equal to 0.02? t

Others:
Item COC(=O)[C@H]1[C@@H](O)[C@@]2(O)c3ccccc3O[C@@]2(c2ccccc2)[C@@H]1c1ccccc1 with composite z-score of 0.02 or above? f

Does the reported composite z-score for C#CCCCON=C1C[C@@H](O)[C@@H](O)[C@@H]2[C@@H]3C(=O)N(C(C)(C)C)C(=O)[C@@H]3CC[C@H]12 fall at or above the 0.02 mark? f

Determine whether measured composite z-score meets or exceeds 0.02 for C#CCCCON=C1C[C@@H](O)[C@@H](O)[C@@H]2[C@@H]3C(=O)N(c4ccc(F)cc4F)C(=O)[C@@H]3CC[C@H]12 t

Reported composite z-score reaches at least 0.02 for CC(CCC(=O)OC[C@H]1O[C@H](C#Cc2ccccc2)C=C[C@@H]1Oc1ccc(C)cc1)=NO[C@H](C)c1cn([C@H](CO)Cc2ccccc2)nn1 ? t

Reported composite z-score reaches at least 0.02 for CC(C)CON=C1[C@H]2CCn3c(=O)n(Cc4cc5c(cc4Cl)OCO5)c(=O)n3[C@H]2[C@H](O)[C@@H]2O[C@H]12 ? f
